# TEST_NAME: resazurin metabolic signal in A549 cells – cell-based, resazurin fluorescence, 24 h, PK04 Diversity Set, profiling panel (AID 1171); note: test concentration not given here
# REPORTED_CONDITIONS: A549 viability, higher = more signal, called active from +8 up or from −8 down
Simple rule here: z-score less than -0.09 is satisfied, otherwise not satisfied.

IN: In the record for O=C1O[C@@H](c2ccccc2)[C@@H](c2ccccc2)N2[C@@H](c3ccc(OCCO)cc3)[C@]3(C(=O)Nc4ccc(C#CC5(O)CCCCCC5)cc43)[C@@H](C(=O)Nc3nc4ccccc4s3)[C@H]12 , is z-score less than -0.09?
OUT: not satisfied

IN: In the record for NC(=O)N1C(=O)C2C(C1=O)C1C=C(CCCO)C2C(c2ccc(CN3CCCC3)cc2)N1Cc1cc2c(cc1Br)OCO2 (centres undefined) , is z-score less than -0.09?
OUT: satisfied

IN: In the record for C=CCC(OC(C)=O)[C@@H]1[C@@H](N(Cc2cccc3ccccc23)C(=O)Cc2ccc(OC)cc2)c2cc(OCCCO)ccc2N1C(=O)c1ccc2ccccc2c1 (some centres undefined) , is z-score less than -0.09?
OUT: not satisfied

IN: In the record for COCCCNC(=O)[C@@]1(Sc2ccc(C)cc2)CC(=O)N(Cc2ccccc2C(F)(F)F)[C@@H]1c1ccc(CO)cc1I , is z-score less than -0.09?
OUT: satisfied

IN: In the record for COc1ccc([Si](C)(C)[C@H]2[C@H](CC(=O)N3Cc4ccccc4C[C@H]3CO)O[C@@]3(C(=O)N(C)c4c(Br)cc(C)cc43)[C@@H]2C)cc1 , is z-score less than -0.09?
OUT: satisfied

IN: In the record for C[C@]1(C(=O)O)c2ccccc2C(=O)N(Cc2cc(F)cc(C(F)(F)F)c2)[C@H]1c1ccc(CO)cc1 , is z-score less than -0.09?
OUT: not satisfied

IN: In the record for C=C(CCCC)/C(=C/C[C@@H](OC(C)=O)c1ccc(CO)o1)c1cnc2ccccc2c1 , is z-score less than -0.09?
OUT: satisfied

IN: In the record for COc1ccc([Si](C)(C)[C@H]2[C@H](CCO)O[C@@]3(C(=O)N(Cc4cccc(N5C(=O)c6ccccc6Oc6ccccc65)c4)c4ccccc43)[C@@H]2C)cc1 , is z-score less than -0.09?
OUT: satisfied

IN: In the record for CCCNC(=O)[C@@]1(c2ccc([N+](=O)[O-])cc2)CC(=O)N(C(C)C)[C@@H]1c1ccc(CO)cc1 , is z-score less than -0.09?
OUT: not satisfied

IN: In the record for COCC(=C=CC[C@H](O)c1ccccc1OCCO)C[C@H](O)COCc1ccccc1 , is z-score less than -0.09?
OUT: not satisfied

IN: In the record for CCCCC(=C=CC[C@H](O)c1ccc(CO)o1)CCO , is z-score less than -0.09?
OUT: satisfied

IN: In the record for COC(=O)C1(Cc2ccccc2)C=C2C(=C(C)C(=O)C2C)CN1 (centres undefined) , is z-score less than -0.09?
OUT: satisfied

IN: In the record for COC(=O)C(CC#Cc1ccc2c(c1)[C@]1(C(=O)N2)[C@H](c2ccc(OCCO)cc2)N2[C@H](c3ccccc3)[C@H](c3ccccc3)OC(=O)[C@H]2[C@@H]1C(=O)N1CCCCCCC1)C(=O)OC , is z-score less than -0.09?
OUT: satisfied

IN: In the record for COCCOC(=O)N1C(=O)[C@@]2(c3cc(C#CCCO)ccc31)[C@H](c1ccccc1OCCO)N1[C@H](c3ccccc3)[C@H](c3ccccc3)OC(=O)[C@H]1[C@@H]2C(N)=O , is z-score less than -0.09?
OUT: not satisfied

IN: In the record for COc1ccc(CCNC(=O)[C@@H]2c3ccccc3C(=O)N(Cc3ccccc3OC)[C@H]2c2ccc(CO)cc2)cc1 , is z-score less than -0.09?
OUT: not satisfied

IN: In the record for CN1C(=O)[C@@H]2[C@@H](CC(COc3ccccc3)=C3[C@@H](CCc4ccccc4)OB(O)C[C@@H]32)C1=O , is z-score less than -0.09?
OUT: satisfied

IN: In the record for [N-]=[N+]=NCc1ccccc1[C@@H]1OC(c2ccc(OCCCO)cc2)=N[C@]1(Cc1ccccc1N=[N+]=[N-])C(=O)NCC(O)CO (some centres undefined) , is z-score less than -0.09?
OUT: satisfied

IN: In the record for C=C1C(=O)C=C2CN(C(=O)c3ccccc3)[C@@](Cc3ccc(OC)cc3)(C(=O)OC)[C@@H]12 , is z-score less than -0.09?
OUT: satisfied

IN: In the record for COCCOC(=O)N1C(=O)[C@@]2(c3cc(C#CCC(C(=O)OC)C(=O)OC)ccc31)[C@H](C(N)=O)[C@H]1C(=O)O[C@H](c3ccccc3)[C@H](c3ccccc3)N1[C@@H]2c1ccc(O)cc1 , is z-score less than -0.09?
OUT: not satisfied

IN: In the record for [N-]=[N+]=Nc1ccccc1[C@@H]1OC(c2ccc(OCCCO)cc2)=N[C@]1(Cc1ccccc1)C(=O)NCCN1CCOCC1 , is z-score less than -0.09?
OUT: satisfied

IN: In the record for CC(C)(C)N1CC=CC23O[C@@H]4C=CCCOC(=O)C4[C@H]2C(=O)N(CCCCCCO)[C@@H]3C1=O (some centres undefined) , is z-score less than -0.09?
OUT: satisfied

IN: In the record for COc1ccc(C(O)C2C=CC3C(=O)N(c4ccccc4)C(=O)C3N2Nc2ccc(C#N)cc2)cc1OCc1ccccc1 (centres undefined) , is z-score less than -0.09?
OUT: not satisfied

IN: In the record for CN(C)CCCNC(=O)[C@@]1(C)c2ccccc2C(=O)N(Cc2ccc(OC(F)(F)F)cc2)[C@H]1c1ccc(CO)cc1 , is z-score less than -0.09?
OUT: not satisfied

IN: In the record for OCCCC1=CC(c2ccc(CN3CCCC3)cc2)N(Cc2cccc(OC(F)(F)F)c2)CC1 (centres undefined) , is z-score less than -0.09?
OUT: not satisfied

IN: In the record for O=C1O[C@@H](c2ccccc2)[C@@H](c2ccccc2)N2[C@@H](c3ccc(OCCO)cc3)[C@]3(C(=O)Nc4ccc(C#CC5(O)CCCCCC5)cc43)[C@@H](C(=O)O)[C@H]12 , is z-score less than -0.09?
OUT: not satisfied

IN: In the record for CC(C)(C)OC(=O)CC[C@@]1(C(=O)NCCN2CCOCC2)N=C(c2ccc(OCCCO)cc2)O[C@@H]1c1ccccc1CN=[N+]=[N-] , is z-score less than -0.09?
OUT: not satisfied

IN: In the record for Cc1ccc(S[C@]2(C(=O)NC3CC3)CC(=O)N(C(C)C)[C@@H]2c2ccc(CO)cc2I)cc1 , is z-score less than -0.09?
OUT: not satisfied

IN: In the record for N#Cc1ccc(NN2C(C(O)C3CC=CCC3)C=CC3C(=O)N(c4ccccc4)C(=O)C32)cc1 (centres undefined) , is z-score less than -0.09?
OUT: satisfied
